As shown below, each of these compounds has a reported MEC value.
- study-target: recombinant guanylate cyclase reporter cell line (Rattus norvegicus, UniProt P19686+P20595)
- Construct: expressed in transfected cells
- Sequence (P20595 1-619): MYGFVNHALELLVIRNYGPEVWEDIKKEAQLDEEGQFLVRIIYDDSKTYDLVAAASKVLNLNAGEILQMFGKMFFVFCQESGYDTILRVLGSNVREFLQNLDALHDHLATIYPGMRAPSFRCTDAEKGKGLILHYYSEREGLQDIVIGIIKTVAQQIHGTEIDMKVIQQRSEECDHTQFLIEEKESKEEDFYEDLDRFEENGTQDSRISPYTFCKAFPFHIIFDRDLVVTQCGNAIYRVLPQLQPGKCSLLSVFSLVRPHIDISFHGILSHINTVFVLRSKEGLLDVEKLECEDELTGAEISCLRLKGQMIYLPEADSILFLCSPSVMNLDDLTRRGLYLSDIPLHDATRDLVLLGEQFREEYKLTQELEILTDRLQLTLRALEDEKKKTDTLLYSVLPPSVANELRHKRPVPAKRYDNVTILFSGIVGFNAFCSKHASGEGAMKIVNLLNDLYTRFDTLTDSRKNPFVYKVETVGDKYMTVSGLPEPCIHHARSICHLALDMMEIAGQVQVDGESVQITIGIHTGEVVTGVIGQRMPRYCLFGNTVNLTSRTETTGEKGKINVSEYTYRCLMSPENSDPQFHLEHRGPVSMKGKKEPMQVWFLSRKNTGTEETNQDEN
- Sequence (P19686 1-690): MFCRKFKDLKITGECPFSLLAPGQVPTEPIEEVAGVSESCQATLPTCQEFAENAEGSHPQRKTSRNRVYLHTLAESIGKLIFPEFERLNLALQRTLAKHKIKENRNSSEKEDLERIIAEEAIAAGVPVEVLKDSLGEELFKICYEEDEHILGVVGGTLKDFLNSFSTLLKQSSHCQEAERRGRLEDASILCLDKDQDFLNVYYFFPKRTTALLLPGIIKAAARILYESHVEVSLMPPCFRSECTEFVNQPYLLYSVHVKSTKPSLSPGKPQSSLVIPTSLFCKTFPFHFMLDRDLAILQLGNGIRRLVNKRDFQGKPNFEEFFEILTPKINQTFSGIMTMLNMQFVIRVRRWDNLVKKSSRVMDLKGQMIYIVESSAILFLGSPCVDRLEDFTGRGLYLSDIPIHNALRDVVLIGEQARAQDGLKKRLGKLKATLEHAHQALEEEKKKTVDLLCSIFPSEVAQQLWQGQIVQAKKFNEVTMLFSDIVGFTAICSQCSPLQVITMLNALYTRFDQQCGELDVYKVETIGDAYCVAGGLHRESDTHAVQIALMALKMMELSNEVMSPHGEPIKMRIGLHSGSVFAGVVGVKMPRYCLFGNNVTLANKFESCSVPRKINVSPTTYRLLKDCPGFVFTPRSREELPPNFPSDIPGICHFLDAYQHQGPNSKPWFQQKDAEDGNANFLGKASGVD
- protocol-text: B-2. Action on recombinant guanylate cyclase reporter cell line
- Type: cell-based
- condition-label: MEC = minimal effective concentration; in some cases mean values from individual determinations
Write your answer as a measured quantity: the number, then the unit.

Illustrative cases are given below, each with its answer.
compound="Cc1nc2c(OCc3c(F)cccc3F)cccn2c1C(=O)NCC(C)N1CCOCC1 (single isomer, unassigned; ent-8) [Example 181]" result_value="1.00 µM"
compound="Cc1cc(OCc2c(F)cccc2F)c2nc(C)c(C(=O)NC(CN)c3cccc(OC(F)(F)F)c3)n2c1 (racemic)" result_value="1.00 µM"
compound="Cc1cc(OCc2c(F)cccc2F)c2nc(C)c(C(=O)NCC(C)(N)CO)n2c1 (single isomer, unassigned; enantiomer b) [Example 269]" result_value="0.65 µM"
compound="Cc1nc2c(OCc3c(F)cccc3F)cccn2c1C(=O)NC(CN)COc1ccc(F)c(F)c1 (stereo not drawn)" result_value="1.00 µM"
compound="Cc1nc2c(OCc3c(F)cccc3F)cccn2c1C(=O)NC1CCNc2ccc(F)cc21 (single isomer, unassigned; ent-8) [Example 106]" result_value="0.03 µM"

From here, focus on the item given below.
In: Data request, read-out MEC, for Cc1cc(OCc2c(F)cccc2F)c2nc(C)c(C(=O)NC3CCC3(C)N)n2c1 (single isomer, unassigned; enantiomer b) [Example 333]
Out: 1.00 µM

* * *

- study-target: recombinant guanylate cyclase reporter cell line (Rattus norvegicus, UniProt P19686+P20595)
- Construct: expressed in transfected cells
- protocol-text: B-2. Action on recombinant guanylate cyclase reporter cell line
- Assay type: cell-based
- condition-label: MEC = minimal effective concentration; in some cases mean values from individual determinations
measured-attribute: MEC (µM)
Kindly provide the numeric value in µM only, without the unit symbol.

Illustrative cases are given below, each with its answer.
molecule="Cc1nc2c(OCc3c(F)cc(F)cc3F)cccn2c1C(=O)NC(CN)c1ccc(F)c(F)c1 (stereo not drawn)" measured_attribute=MEC result_value=1.00
molecule="Cc1nc2c(OCc3c(F)cccc3F)cc(Cl)cn2c1C(=O)NCC(C)(N)CC(C)C (single isomer, unassigned) [Example 226]" measured_attribute=MEC result_value=0.10

From here, focus on the item given below.
In: Data request, read-out MEC, for Cc1nc2c(OCc3c(F)cccc3F)cccn2c1C(=O)NC1CCNc2ccc(C(F)(F)F)cc21 (single isomer, unassigned; ent-8) [Example 112]
Out: 0.10

* * *

- study-target: recombinant guanylate cyclase reporter cell line (Rattus norvegicus, UniProt P19686+P20595)
- Construct: expressed in transfected cells
- protocol-text: B-2. Action on recombinant guanylate cyclase reporter cell line
- Assay type: cell-based
- condition-label: MEC = minimal effective concentration; in some cases mean values from individual determinations
Structures can show the parent of a compound that is named as a salt.
As shown below, each of these compounds has a reported MEC value.
Kindly provide the numeric value in µM only, without the unit symbol.

In: Data request, read-out MEC, for "Cc1nc2c(OCc3c(F)cccc3F)cccn2c1C(=O)N[C@H]1CCNC1"
Out: 3.00

In: # iterate: Cc1nc2c(OCc3c(F)cccc3F)cccn2c1C(=O)NC(CN)c1ccccc1 (racemic) [Example 16, Dihydrochloride]
Out: 0.30

In: # iterate: Cc1nc2c(OCc3c(F)cccc3F)cc(Cl)cn2c1C(=O)NCC(N)C(C)C (single isomer, unassigned) [Example 212]
Out: 1.00

In: # iterate: Cc1cc(OCc2c(F)cccc2F)c2nc(C)c(C(=O)NCC(N)CC(F)(F)F)n2c1 (single isomer, unassigned) [Example 128]
Out: 0.10

In: # iterate: Cc1nc2c(OCc3c(F)cccc3F)cc(Cl)cn2c1C(=O)NCC(C)(N)CC(C)C (racemic) [Example 225]
Out: 0.30

In: # iterate: Cc1nc2c(OCc3c(F)cccc3F)cccn2c1C(=O)NC1CC2CCC(C1)N2C (stereo not drawn)
Out: 1.00

In: # iterate: Cc1nc2c(OCc3c(F)cccc3F)cccn2c1C(=O)N[C@H]1CCCNC1 [Example 60, dihydrochloride]
Out: 0.30

In: # iterate: Cc1cc(OCc2c(F)cccc2F)c2nc(C)c(C(=O)NCC(C)(N)COCc3ccccc3)n2c1 (racemic)
Out: 0.30

In: # iterate: "CCCC[C@H](CN1CCN(C)CC1)NC(=O)c1c(C)nc2c(OCc3c(F)cccc3F)cccn12"
Out: 0.30

In: # iterate: Cc1cc(OCc2c(F)cccc2F)c2nc(C)c(C(=O)NCC(C)(N)Cc3ncn(-c4cc(C)on4)n3)n2c1 (racemic)
Out: 0.30

In: # iterate: CCCC(C)(N)CNC(=O)c1cnc2c(OCc3c(F)cccc3F)cccn12 (stereo not drawn)
Out: 3.00

In: # iterate: Cc1nc2c(OCc3c(F)cccc3F)cccn2c1C(=O)NC(CN)COc1ccc(F)cc1 (racemic)
Out: 1.00

In: # iterate: CCCC(C)(N)CNC(=O)c1c(C)nc2c(OCc3c(F)cccc3F)cc(Cl)cn12 (single isomer, unassigned) [Example 245]
Out: 0.10

In: # iterate: Cc1nc2c(OCc3c(F)cccc3F)cccn2c1C(=O)NC(CN)c1ccc(F)cc1 (single isomer, unassigned; enantiomer b) [Example 10]
Out: 0.30

In: # iterate: Cc1cc(OCc2c(F)cccc2F)c2nc(C)c(C(=O)NC3CCCCNC3)n2c1 (racemic)
Out: 0.30

* * *

- study-target: recombinant guanylate cyclase reporter cell line (Rattus norvegicus, UniProt P19686+P20595)
- Construct: expressed in transfected cells
- protocol-text: B-2. Action on recombinant guanylate cyclase reporter cell line
- Assay type: cell-based
- condition-label: MEC = minimal effective concentration; in some cases mean values from individual determinations
- Procedure: B-2. Action on Recombinant Guanylate Cyclase Reporter Cell Line The cellular action of the compounds according to the invention is determined on a recombinant guanylate cyclase reporter cell line, as described in F. Wunder et al., Anal. Biochem. 339, 104-112 (2005). Representative MEC values (MEC=minimal effective concentration) for the compounds according to the invention are shown in the following table (in some cases as mean values obtained from individual determinations): […]
As shown below, each of these compounds has a reported MEC value.
Kindly provide the numeric value in µM only, without the unit symbol.

Illustrative cases are given below, each with its answer.
compound="CCC(C)(N)CNC(=O)c1c(C)nc2c(OCc3c(F)cccc3F)cc(C(F)F)cn12 (single isomer, unassigned; enantiomer a) [Example 287]" result_units=µM result_value=0.3
compound="Cc1nc2c(OCc3c(F)cccc3F)cccn2c1C(=O)NC(CN)COC(C)C (single isomer, unassigned) [Example 93]" result_units=µM result_value=0.30
compound=Cc1nc2c(OCc3c(F)cccc3F)cc(Cl)cn2c1C(=O)NCCNC(C)C result_units=µM result_value=1.00

From here, focus on the item given below.
In: Data request, read-out MEC, for Cc1nc2c(OCc3c(F)cccc3F)cc(Cl)cn2c1C(=O)NC(C)C1CCN(C)CC1 (racemic)
Out: 1.00

Numbers sourced from patent US9624214B2.
